# Tested on: HeLa Kyoto;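 note: synchronized HeLa Kyoto cells (double thymidine block for G1/S, nocodazole release for mitosis), protein amounts in NP-40 versus SDS lysates quantified by mass spectrometry, three biological replicates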
# assay remarks: solubility change mitosis vs G1/S (difference of NP-40 vs SDS log2 ratios) (log2 ratio difference); higher = more soluble in mitosis
Task for the reader: assign each of the following sequences its reported solubility change mitosis (log2).
Numbers only.

Fill in the blank: the reported solubility change mitosis (log2) of MTSEVIEDEKQFYSKAKTYWKQIPPTVDGMLGGYGHISSIDINSSRKFLQRFLREGPNKTGTSCALDCGAGIGRITKRLLLPLFREVDMVDITEDFLVQAKTYLGEEGKRVRNYFCCGLQDFTPEPDSYDVIWIQWVIGHLTDQHLAEFLRRCKGSLRPNGIIVIKDNMAQEGVILDDVDSSVCRDLDVVRRIICSAGLSLLAEERQENLPDEIYHVYSFALR [NTMT1] is ____.
-0.15

More entries:
Fill in the blank: the reported solubility change mitosis (log2) of MEDKRNIQIIEWEHLDKKKFYVFGVAMTMMIRVSVYPFTLIRTRLQVQKGKSLYHGTFDAFIKILRADGITGLYRGFLVNTFTLISGQCYVTTYELTRKFVADYSQSNTVKSLVAGGSASLVAQSITVPIDVVSQHLMMQRKGEKMGRFQVRGNPEGQGVVAFGQTKDIIRQILQADGLRGFYRGYVASLLTYIPNSAVWWPFYHFYAEQLSYLCPKECPHIVFQAVSGPLAAATASILTNPMDVIRTRVQVEGKNSIILTFRQLMAEEGPWGLMKGLSARIISATPSTIVIVVGYESLKKLSLRPELVDSRHW [SLC25A44] is ____.
-0.117
